Target: T1, SARS-CoV-2 receptor binding domain (RBD), wild type, His-tagged (SARS-CoV-2, UniProt P0DTC2 319-541)
T1 construct: domain: RBD; also called His-tagged RBD; BEI NR52309
Experiment: BLI competition on His-tagged RBD, after 1st Ab 236
READOUT_NAME: RBD binding of 2nd Ab after 1st Ab (heat map)
In your answer, state the number alone without any accompanying words.

Task: Look up RBD binding of 2nd Ab after 1st Ab (heat map) for this binder: mAb 82 (antibody, V domains shown, also called IgG 82; Antibody 82) VH: QVQLVQSGAEVKKPGASVKVSCKASGGSFSTSAFYWVRQAPGQGLEWMGWINPYTGGTNYAQKFQGRVTMTRDTSTSTVYMELSSLRSEDTAVYYCARSRALYGSGSYFDYWGQGTLVTVSS VL: DIQMTQSPSSLSASVGDRVTITCRASQVISNYLAWYQQKPGKAPKLLIYDASNLETGVPSRFSGSGSGTDFTLTISSLQPEDFATYYCQQSFSPPPTFGQGTRLEIKR
Output: 0.6

Task: Look up RBD binding of 2nd Ab after 1st Ab (heat map) for this binder: mAb 52 (antibody, V domains shown, also called IgG 52; Antibody 52) VH: QVQLVQSGAEVKKPGSSVKVSCKASGYTFTSYGISWVRQAPGQGLEWMGGIIPMFGTTNYAQKFQGRVTITADKSTSTAYMELSSLRSEDTAVYYCARDRGDTIDYWGQGTLVTVSS VL: DIQMTQSPSSLSASVGDRVTITCRASQGISNNLNWYQQKPGKAPKLLIYAASSLESGVPSRFSGSGSGTDFTLTISSLQPEDFATYYCQQGNGFPLTFGPGTKVDIKR
Output: 1.5

Task: Look up RBD binding of 2nd Ab after 1st Ab (heat map) for this binder: mAb 46 (antibody, V domains shown, also called IgG 46; Antibody 46) VH: EVQLLESGGGLVQPGRSLRLSCAASGFTFSSYAMSWVRQAPGKGLEWVSTIYSGGSTYYADSVKGRFTISRDNSKNTLYLQMNSLRAEDTAVYYCARGDSRDAFDIWGQGTMVTVSS VL: DIQMTQSPSSLSASVGDRVTITCRASQSISSWLAWYQQKPGKAPKLLIYDASNLETGVPSRFSGSGSGTDFTLTISSLQPEDFATYYCQQSYSTPFTFGPGTKVDIKR
Output: 1.7

Task: Look up RBD binding of 2nd Ab after 1st Ab (heat map) for this binder: mAb 324 (antibody, V domains shown, also called IgG 324; Antibody 324) VH: QVQLVQSGAEVKKPGASVKVSCKASGGTFNNYGISWVRQAPGQGLEWMGWMNPNSGNTGYAQKFQGRVTMTRDTSTSTVYMELSSLRSEDTAVYYCARVGDYGDYIVSPFDLWGRGTLVTVSS VL: DIQMTQSPSSLSASVGDRVTITCRASQSITTYLNWYQQKPGKAPKLLIYDASNLETGVPSRFSGSGSGTDFTLTISSLQPEDFATYYCQQSYSTPPTFGQGTKVEIKR
Output: 0.3
